Each recorded value in this set is attributed to PubChem BioAssay (NCI).

tested on: LOX IMVI melanoma; experiment: NCI tumour cell line growth inhibition, 48 h
As shown below, each of these compounds has a reported log10 of TGI value.
readout.label: log10 of TGI (log10 of the value in µM)

• COc1ccc(C2=NN(C=O)C(c3cccc(Nc4ccnc5cc(Cl)ccc45)c3)C2)cc1 (stereo not given) = 1.10
• NC(=S)NNc1c([N+](=O)[O-])cnn(-c2ccccc2)c1=O = 1.37
• CNCCn1c(=O)c2cc(OC)c(OC)cc2c2ccc3cc4c(cc3c21)OCO4 = -0.76
• O=C(O)c1ccc2c(c1)CCCC(c1ccc(Cl)cc1Cl)=C2c1ccc(O[C@H]2CCN(CCCF)C2)cc1 = 1.42
• COC(=O)c1nc(Cl)nc(Cl)c1Cl = 1.47

====

tested on: KM20L2 colon; test: NCI tumour cell line growth inhibition, 48 h
As shown below, each of these molecules has a reported TGI value.
readout.label: TGI

- CS(=O)(=O)CSCSSCS(C)(=O)=O: > 100 µM
- COC(=O)[C@@H]1CCCCC[C@H]2C(CO)=C(C)C(=O)C12 (stereo partly drawn): > 100 µM
- C/C=C1\NC(=O)[C@H]2CSSCCC=C[C@H](CC(=O)N[C@H](C(C)C)C(=O)N2)OC(=O)[C@H](C(C)C)NC1=O: 0.00796 µM
- CCC1=C(C(C)=O)[C@@H]2CCCCC[C@@H](C(=O)OC)C2C1=O (stereo partly drawn): > 100 µM
- Cc1cccc(C)c1NC(=O)C1C(=O)N(c2c(C)cccc2C)C(=O)/C1=N\NC(N)=S (stereo not drawn): > 100 µM
- COC(=O)c1ccccc1NC(=O)C(=O)NNC(=O)c1ccncc1: > 100 µM
- Cc1cc(C)c(C(=O)c2no[n+]([O-])c2C(=O)c2c(C)cc(C)c(Br)c2C)c(C)c1Br: 32.9 µM
- CCOP(=O)(OCC)OC(C#N)c1ccc(-c2ccccc2)cc1 (stereo not drawn): > 100 µM
- CCCCN(CCCC)c1c([N+](=O)[O-])c(=O)nc2ccccn12: > 100 µM
- CCOC(=O)C1(C#N)C(c2ccccc2)CC(O)(c2ccc(Cl)cc2)C(C(=O)c2ccc(Cl)cc2)C1c1ccccc1 (stereo not drawn): > 100 µM
- CCCCOc1ccc(OCCCCCCCCCC[N+](C)(C)C)cc1: 3.87 µM
- CC1=C(C(=O)Nc2cccc(Cl)c2)C(c2ccccc2F)C(C(=O)Nc2cccc(Cl)c2)=C(C)N1: 24.3 µM
- CC(C)N1CC2CC(CN(C(=O)c3ccccc3)C2)C1: > 100 µM

====

test system: OVCAR-3 ovarian; test: NCI tumour cell line growth inhibition, 48 h
readout.label: TGI (µM)

- S=C(N/N=C\C(=N/NC(=S)N1CCCCC1)c1ccccc1)N1CCCCC1: 3.68
- COc1cccc2c1C(=O)c1c(O)c3c(c(O)c1C2=O)C[C@H](O)C[C@@H]3OC1CC(N)C(O)C(C)O1 (some centres not stated): 7.34
- COc1ccc(N2C(=O)[C@H]3CC(C)c4c([nH]c5ccccc45)[C@H]3C2=O)cc1 (some centres not stated): 6.68
- COC(=O)c1nc(Cl)nc(Cl)c1Cl: 16.8
- Cc1cc(C)c(S(=O)(=O)N(CCCN)OCCCON(CCCN)S(=O)(=O)c2c(C)cc(C)cc2C)c(C)c1: 4.26
- O=C1C(c2ccccc2)=[N+]([O-])c2ccccc21: 29.1
- CCCCC1=C(C(=O)N2CCOCC2)C2(OCCO2)C1=O: 39.7
- CSc1nc(NC(C)C)c2c(n1)Sc1nc3ccccc3n1N=C2: 25.1
- COc1ccc(C2C3=C(COC3=O)Oc3cc4c(cc32)OCO4)c(OC)c1 (configuration not stated): 58.7
- Cc1sc2nc3c4ccccc4c(NCCCN(C)C)nn3c(=O)c2c1C: 24.3
- Fc1cc2[nH]ncc2c2c3c(c(-c4cn[nH]c4C(F)(F)F)nc12)C1CCC3C1 (configuration not stated): 4.87

====

tested on: HS 578T breast; experiment: NCI tumour cell line growth inhibition, 48 h
readout.label: GI50

- OCCNc1ncnc2c1ncn2Cc1cccc(COc2cccc(OCc3cccc(Cn4cnc5c(NCCO)ncnc54)c3)c2)c1: 11.8 µM
- CN1C(=O)N(C)C2C1NN=c1s/c(=C\c3ccc(F)cc3)c(=O)n12 (stereo not drawn): 2.08 µM
- COc1cc2c(=O)n(CCN)c3c4cc5c(cc4ccc3c2cc1OC)OCO5: 2.8 µM

====

As shown below, each of these compounds has a reported TGI value.
tested on: RXF 393 renal; experiment: NCI tumour cell line growth inhibition, 48 h
readout.label: TGI

• Cc1cc(C)c(C(=O)c2no[n+]([O-])c2C(=O)c2c(C)cc(C)c(Br)c2C)c(C)c1Br = 19.9 µM
• Cn1c2c(c3ccc(Cl)c(Cl)c31)C(C#N)C1(CCNCC1)NC2=O (stereo unspecified) = 5.79 µM
• CC(C)N1CC2CC(CN(C(=O)c3ccccc3)C2)C1 = > 100 µM
• COC1OC(CO)C(O)C1N (stereo unspecified) = > 100 µM
• C/C=C/C=C/C=C/C=C/C(=O)O = > 100 µM
• Cc1cccc(-n2c(=S)[nH]c3c(sc(=O)n3-c3ccccc3C)c2=O)c1 = > 100 µM
• O=C(CCc1cc(O)cc(O)c1)NCCCNC(=O)CCc1cc(O)cc(O)c1 = > 100 µM
• NC(N)=NCCC1OC(=O)C2=C1c1c(O)ccc3nccc(c13)O2 (stereo unspecified) = > 100 µM
• COC(=O)c1ccccc1NC(=O)C(=O)NNC(=O)c1ccncc1 = > 100 µM
• COc1cccc2c1C(=O)c1c(O)c3c(c(O)c1C2=O)C[C@H](O)C[C@@H]3OC1CC(N)C(O)C(C)O1 (stereo partly specified) = 25 µM
• CCC(O)(Cc1ccc(OC)cc1)c1ccc(OC)cc1 (stereo unspecified) = > 100 µM
• O=c1nc2c(c(-c3ccc(Br)cc3)[nH]1)COC/C2=C\c1ccc(Br)cc1 = > 50 µM
• CCn1c2ccc(C(=O)CCCN3CCCCC3)cc2c2cc(C(=O)CCCN3CCCCC3)ccc21 = 7.31 µM
• Cc1cc2c(cc1C)N(C(=O)CCl)CCN2C(=O)CCl = 0.668 µM
• CC(=O)OCC1OC(n2c(-c3ccccc3)c(N=Nc3ccccc3)c(C)c(C#N)c2=S)C(OC(C)=O)C(OC(C)=O)C1OC(C)=O (stereo unspecified) = > 100 µM
• COC(=O)[C@@H]1CCCCC[C@H]2C(CO)=C(C)C(=O)C12 (stereo partly specified) = > 100 µM
• CN(C)/N=C(/c1nc2ccc(Cl)cc2[nH]c1=O)C(O)c1ccc(C(O)/C(=N\N(C)C)c2nc3ccc(Cl)cc3[nH]c2=O)cc1 (stereo unspecified) = > 100 µM
• COC(=O)c1nc(Cl)nc(Cl)c1Cl = 28.2 µM
• CCOc1cc(/C=N\Nc2nnc(C)n2N)c(C)cc1N(CCCl)CCCl = 17.7 µM
• CC(C)c1cccc(C(C)C)c1NC(=O)/C(CC(=O)CC(c1ccccc1)c1c(O)c2ccccc2oc1=O)=N/O (stereo unspecified) = > 100 µM
• COc1ccc(C2C3=C(COC3=O)Oc3cc4c(cc32)OCO4)c(OC)c1 (stereo unspecified) = 51 µM

====

test system: A498 renal; test: NCI tumour cell line growth inhibition, 48 h
readout.label: log10(TGI) (log10 of the value in µM)

• CC(C)C(CC(=O)OCC(CO)OC(=O)CC(C(C)C)C(C)C)C(C)C (centres undefined) = 1.47
• CC[PH+](CC)CC.O=COC1OC([S-])C(OC=O)C(OC=O)C1OC=O.[Au+] (centres undefined) = 0.52
• CN(C)CC1CCC/C(=C\c2ccc(OC(=O)c3ccc(Cl)cc3)cc2)C1=O (centres undefined) = 1.35
• CCCCC1=C(C(=O)N2CCOCC2)C2(OCCO2)C1=O = 1.79
• COc1cc(C(=O)Nc2cc3c(cc2Oc2cc(C)cc(C)c2)C(=O)N(C)[C@@H](CC(=O)N(C)O)C(=O)N3)c(Br)c(OC)c1OC = -2.24
• COC(=O)C1C(C(=O)OC)C2(OC(c3ccc(Cl)cc3)=CC2=O)C12OC(c1ccc(Cl)cc1)=CC2=O (centres undefined) = 1.88

====

test system: SN12C renal; assay: NCI tumour cell line growth inhibition, 48 h
As shown below, each of these compounds has a reported GI50 value.
readout.label: GI50

- COc1ccc2[nH]c(O)c(C(=Nc3ccc(N(C)C(=O)CN4CCN(C)CC4)cc3)c3ccccc3)c2c1: 0.74 µM
- COc1ccc(Cn2cc3c(c2)-c2oncc2CC3)cc1: 10.1 µM
- Fc1cc2[nH]ncc2c2c3c(c(-c4cn[nH]c4C(F)(F)F)nc12)C1CCC3C1 (stereo not given): 0.96 µM
- O=C(O)C1CCCCC1C(=O)O.[NH-]C1CCC1.[NH2-].[Pt+2] (stereo not given): 11.8 µM
- Cc1cc2c(cc1C)N(C(=O)CCl)CCN2C(=O)CCl: 0.754 µM
- COC(=O)C1CCc2sc3ncnc(Nc4cn[nH]c4C(=O)Nc4ccc(CN5CCN(C)CC5)cc4)c3c21 (stereo not given): 0.345 µM
- CCOc1cc(/C=N\Nc2nnc(C)n2N)c(C)cc1N(CCCl)CCCl: 1.07 µM
- CCn1c(-c2nonc2N)nc2c(C#CC(C)(C)O)nc(OCCNC)cc21: 7.84 µM
- NC(=O)c1cc2c3ccccc3ccn2c1-c1ccccc1: 0.0889 µM
- COc1cc2cc(C(=O)N3C[C@H](CCl)c4c3cc(N)c3ccccc43)[nH]c2c(OC)c1OC: 0.00698 µM
